target: human α-thrombin (Homo sapiens (Human), UniProt P00734); test: Enzymatic assay for thrombin (Boc-VPR-AMC substrate); type: biochemical; settings: Thrombin Ki (μM)
Where a name gives a salt, the structure may show the parent alone.
Experimental Readout: Ki

[
  {
    "Molecule": "C[C@H](NC(=O)[C@H]1C[C@H](c2ccccc2)CN1)C(=O)NCc1cc(Br)cc2cn[nH]c12 [compound 1462]",
    "Result": "10 to 25 µM"
  },
  {
    "Molecule": "C[C@H](NC(=O)c1cc(-c2ccccc2)n[nH]1)C(=O)NCc1ccc(C(=N)N)cc1 [compound 1295]",
    "Result": "2.5 to 10 µM"
  },
  {
    "Molecule": "Cc1nc(N)ccc1CNC(=O)[C@H](C)NC(=O)[C@H]1C[C@H](Cc2cccc(Cl)c2)CN1 [compound 1328, Dihydrochloride]",
    "Result": "0.5 to 2.5 µM"
  },
  {
    "Molecule": "Cc1nc(N)ccc1CNC(=O)[C@H](C)NC(=O)[C@H]1C[C@H](Cc2ccccc2)CN1 [compound 1304, Dihydrochloride]",
    "Result": "0.5 to 2.5 µM"
  },
  {
    "Molecule": "C[C@H](NC(=O)[C@H](N)CCc1ccccc1)C(=O)NCc1cc(Br)ccc1O [compound 1279]",
    "Result": "2.5 to 10 µM"
  },
  {
    "Molecule": "Cc1nc(N)ccc1CNC(=O)[C@H](C)NC(=O)[C@H]1C[C@H](Cc2cccc(C(=O)N3CCC3)c2)CN1 [compound 1420, Di-trifluoroacetate salt]",
    "Result": "2.5 to 10 µM"
  },
  {
    "Molecule": "Cc1nc(N)ccc1CNC(=O)[C@H](C)NC(=O)[C@H]1C[C@H](Cc2cccc(Br)c2)CN1 [compound 1452, Dihydrochloride]",
    "Result": "0.5 to 2.5 µM"
  },
  {
    "Molecule": "CC[C@H](NC(=O)[C@H]1C[C@H](c2ccccc2)CN1)C(=O)NCc1ccc(C(=N)N)cc1 [compound 1290]",
    "Result": "0.5 to 2.5 µM"
  },
  {
    "Molecule": "C[C@H](NC(=O)[C@H]1C[C@H](c2ccccc2)CN1)C(=O)NCc1ccc2[nH]cc(Cl)c2c1 [compound 1362]",
    "Result": "0.5 to 2.5 µM"
  },
  {
    "Molecule": "C[C@H](NC(=O)[C@H]1C[C@H](c2ccccc2)CN1)C(=O)NCc1cc2c(Br)cncc2[nH]1 [compound 1493, Di-trifluoroacetate salt]",
    "Result": "10 to 25 µM"
  },
  {
    "Molecule": "C[C@H](NC(=O)[C@@H](CCc1ccccc1)NCCc1cccc(OC(F)(F)F)c1)C(=O)NCc1ccc(C(=N)N)cc1 [compound 1352, Di-trifluoroacetate salt]",
    "Result": "0.5 to 2.5 µM"
  },
  {
    "Molecule": "Cc1nc(N)ccc1CNC(=O)[C@H](C)NC(=O)[C@H]1C[C@H](Cc2cccc(-c3ccccc3)c2)CN1 [compound 1406]",
    "Result": "2.5 to 10 µM"
  },
  {
    "Molecule": "Cc1nc(N)ccc1CNC(=O)[C@H](C)NC(=O)[C@H]1C[C@H](Cc2cc(Br)c(Cl)s2)CN1 [compound 1483, Di-trifluoroacetate salt]",
    "Result": "10 to 25 µM"
  },
  {
    "Molecule": "Cc1nc(N)ccc1CNC(=O)[C@H](C)NC(=O)[C@H]1C[C@H](Cc2cccc3ccccc23)CN1 [compound 1324, Di-trifluoroacetate salt]",
    "Result": "0.5 to 2.5 µM"
  },
  {
    "Molecule": "Cc1nc(N)ccc1CNC(=O)[C@H](C)NC(=O)[C@H]1C[C@H](Cc2cccc(C#N)c2)CN1 [compound 1429, Di-trifluoroacetate salt]",
    "Result": "2.5 to 10 µM"
  },
  {
    "Molecule": "C[C@H](NC(=O)[C@H](N)CCc1ccccc1)C(=O)NCc1cc(Cl)ccc1OCC(=O)NCCCO [compound 1237]",
    "Result": "0.5 to 2.5 µM"
  },
  {
    "Molecule": "C[C@H](NC(=O)[C@@H](CCc1ccccc1)NCc1ccc(-c2nnn[nH]2)cc1)C(=O)NCc1ccc(C(=N)N)cc1 [compound 1233]",
    "Result": "0.5 to 2.5 µM"
  },
  {
    "Molecule": "Cc1nc(N)ccc1CNC(=O)[C@H](C)NC(=O)[C@H]1C[C@H](Cc2cc(Cl)cc(Cl)c2)CN1 [compound 1435, Dihydrochloride]",
    "Result": "10 to 25 µM"
  },
  {
    "Molecule": "Cc1nc(N)ccc1CNC(=O)[C@H](C)NC(=O)[C@H]1C[C@H](Cc2ccccc2-c2ccccc2)CN1 [compound 1373, Di-trifluoroacetate salt]",
    "Result": "0.5 to 2.5 µM"
  },
  {
    "Molecule": "Cc1nc(N)ccc1CNC(=O)[C@H](C)NC(=O)[C@H](N)CCc1ccccc1 [compound 1245]",
    "Result": "10 to 25 µM"
  },
  {
    "Molecule": "N=C(N)c1ccc(CNC(=O)[C@H](Cc2ccc(O)cc2)NC(=O)[C@H](N)CCc2ccccc2)cc1 [compound 1326, Di-trifluoroacetate salt]",
    "Result": "10 to 25 µM"
  },
  {
    "Molecule": "Cc1nc(N)ccc1CNC(=O)[C@H](C)NC(=O)[C@H]1C[C@H](Cc2ccc(F)c3ccccc23)CN1 [compound 1423, Dihydrochloride]",
    "Result": "2.5 to 10 µM"
  },
  {
    "Molecule": "C[C@H](NC(=O)c1cc(-c2ccccc2)c(-c2ccccc2)[nH]1)C(=O)NCc1ccc(C(=N)N)cc1 [compound 1240]",
    "Result": "10 to 25 µM"
  },
  {
    "Molecule": "Cc1cccc([C@H]2CN[C@@H](C(=O)N[C@@H](C)C(=O)NCc3cc(Cl)ccc3O)C2)c1 [compound 1254]",
    "Result": "10 to 25 µM"
  },
  {
    "Molecule": "Cc1cccc([C@H]2CCN[C@@H](C(=O)N[C@@H](C)C(=O)NCc3ccc(C(=N)N)cc3)C2)c1 [compound 1231]",
    "Result": "2.5 to 10 µM"
  },
  {
    "Molecule": "Cc1nc(N)ccc1CNC(=O)[C@H](C)NC(=O)[C@H]1C[C@H](Cc2ccc3nonc3c2)CN1 [compound 1470, Di-trifluoroacetate salt]",
    "Result": "2.5 to 10 µM"
  }
]
